As shown below, each of these binders has a reported Max Absorbance value.
Biological target: human IL-12 receptor (IL-12Rβ1 and IL-12Rβ2) on HEK-Blue IL-12 cells (human, UniProt P42701 24-662; Q99665 24-862)
Sequence (Q99665 24-862, chain 2 of 2, other chains not shown): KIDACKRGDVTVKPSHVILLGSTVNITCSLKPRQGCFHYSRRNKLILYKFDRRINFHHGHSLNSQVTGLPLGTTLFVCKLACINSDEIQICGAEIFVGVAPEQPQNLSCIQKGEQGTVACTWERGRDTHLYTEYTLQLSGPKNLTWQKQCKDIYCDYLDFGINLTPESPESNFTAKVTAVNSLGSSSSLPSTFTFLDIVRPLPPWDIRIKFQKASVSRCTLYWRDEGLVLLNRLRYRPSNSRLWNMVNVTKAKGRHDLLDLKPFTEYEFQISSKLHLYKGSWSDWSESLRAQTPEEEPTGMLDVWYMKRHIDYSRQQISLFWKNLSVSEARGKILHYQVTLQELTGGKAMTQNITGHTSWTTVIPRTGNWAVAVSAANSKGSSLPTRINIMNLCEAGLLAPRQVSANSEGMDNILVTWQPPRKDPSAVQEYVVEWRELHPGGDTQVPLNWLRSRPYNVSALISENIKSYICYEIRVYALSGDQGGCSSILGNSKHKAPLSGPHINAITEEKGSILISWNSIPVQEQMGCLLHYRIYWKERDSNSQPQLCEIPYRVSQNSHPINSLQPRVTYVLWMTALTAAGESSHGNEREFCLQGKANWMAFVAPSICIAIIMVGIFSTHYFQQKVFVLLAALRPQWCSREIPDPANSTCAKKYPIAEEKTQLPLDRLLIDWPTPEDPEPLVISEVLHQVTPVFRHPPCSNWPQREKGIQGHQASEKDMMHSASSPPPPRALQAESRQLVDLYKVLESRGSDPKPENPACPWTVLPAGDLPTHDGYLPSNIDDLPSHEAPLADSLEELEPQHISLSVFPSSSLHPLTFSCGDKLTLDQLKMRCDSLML
Assay: cell-based or functional assay
Give only the figure.

Worked cases, answers included:
{"Binder": "DGL454 (bispecific antibody, V domains shown) V domain 1: QVQLQESGGALVQPGGSLRLSCVVSGFTSDYFAIGWFRQAPGKEREGVSCIGSSDGSTIYSDSVKGRFTISRDNAKNTVYLQMNSLKPEDTGVYYCALDRGRRTIIGYACYATMKYWGKGTPVTVEP V domain 2: QVQLVESGGGLVQPGGSLRLSCAASGFTFEPYDMSWFRQAPGKGPEWVSAIDKGGGAGATYYADSVKGRFTISRDNAKKTLYLQMKSLKPEDTAVYYCAITAGPYSDSTPRVAYRGEGTQVTVEP", "Max Absorbance": 0.47}
{"Binder": "DGL461 (bispecific antibody, V domains shown) V domain 1: EVQLVESGGGLVQPGGSLRLSCAASGFTFQNYAMSWLRKAPGEGLEWVSVINSGGGSTLYADSVKGRFTISRDNAKNTLYLQMHSLKSEDTAVYFCAKRRDDSTFGSLLYTHRGQGTQVTVEP V domain 2: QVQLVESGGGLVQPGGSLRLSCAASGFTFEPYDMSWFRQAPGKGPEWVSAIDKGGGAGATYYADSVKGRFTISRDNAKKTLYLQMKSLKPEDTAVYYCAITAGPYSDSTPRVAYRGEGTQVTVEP", "Max Absorbance": 0.31}
{"Binder": "DGL462 (bispecific antibody, V domains shown) V domain 1: EVQLVESGGGLVQPGGSLRLSCAASGFTFQNYAMSWLRKAPGEGLEWVSVINSGGGSTLYADSVKGRFTISRDNAKNTLYLQMHSLKSEDTAVYFCAKRRDDSTFGSLLYTHRGQGTQVTVEP V domain 2: QVQLVESGGGLVQAGGSLRLSCAASGRIFSAYRMGWFRQAPGKEREFVAGITWRGQTTYYAASVKGRFTISKDNAKKTVYLQMNSLKPEETAVYYCAVETNGLGRWDRPSEYDYWGQGTQVTVEP", "Max Absorbance": 0.52}

# ---- query binder ----
Looking for the measured Max Absorbance of DGL524 (bispecific antibody, V domains shown) V domain 1: EVQLVESGGGLVQPGGSLRLFCAASRSIFNINIMGWYRQAPGKQREWLASITSGGSTFYADSVKDRFTISRDSVKNTVYLQMNSLKPEDTAAYYCNRYRSVPLNTVYPWGQGTLVTVEP V domain 2: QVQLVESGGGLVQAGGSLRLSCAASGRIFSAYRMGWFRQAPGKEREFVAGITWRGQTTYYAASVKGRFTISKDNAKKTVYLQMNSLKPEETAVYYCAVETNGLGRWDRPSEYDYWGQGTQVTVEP , can you help?
0.58
